experimentSummary: Clinical study in GD-3 patients: Compound 2 concentrations in plasma and CSF
Assay type: in vivo, human
testContext: human, oral, 15 mg/day + imiglucerase, plasma, Day 1 (N = 5), read-out: tmax (median)
Source text: Patients 18 years of age or older with a clinical diagnosis of GD3 and documented deficiency of acid beta-glucosidase activity having received treatment with ERT for at least 3 years and with imiglucerase (Cerezyme) at a stable monthly dose for at least 6 months prior to enrollment were included in the study. […]
assayMetric: Tmax (h)

compound="CC(C)(NC(=O)O[C@@H]1CN2CCC1CC2)c1csc(-c2ccc(F)cc2)n1 [Compound 2]" assaymetric=Tmax observedresult=2

###

System: GM3 expression in C32 human melanoma cells
experimentSummary: GM3 fluorescent-linked immunosorbent assay (FLISA), C32 cells
Type: cell-based
testContext: 48 hours
pIC50: −log10 of the molar value.
Each entry gets F if its pIC50 stays under 8, and T if its pIC50 is 8 or above.

molecule="COCCOc1ccc(-c2ccc(C(C)(C)NC(=O)O[C@@H]3CN4CCC3CC4)cc2)cc1 [Compound 3]" category=T
molecule="CC(C)(NC(=O)OC1CN2CCC1CC2)c1csc(-c2ccc(F)cc2)c1 (centres unmarked) [Compound 10]" category=T
molecule="COCCOc1ccc(-c2cccc(C(C)(C)NC(=O)OC3CN4CCC3CC4)c2)cc1 (centres unmarked) [Compound 15]" category=T
molecule="CC(C)(NC(=O)OC1CN2CCC1CC2)c1cccc(-c2ccccc2)c1 (centres unmarked) [Compound 4]" category=T
molecule="O=C(NC1(c2ccc(-c3ccc(F)cc3F)cc2)CC1)O[C@@H]1CN2CCC1CC2 [Compound 8]" category=T
molecule="COCCCOc1ccc(-c2nc(C(C)(C)NC(=O)OC3CN4CCC3CC4)cs2)cc1 (centres unmarked) [Compound 19]" category=F
molecule="CC(C)(NC(=O)OC1CN2CCC1CC2)c1cccc(-c2ccc(F)cc2)c1 (centres unmarked) [Compound 1]" category=T
molecule="O=C(NC1(c2ccc(-c3ccc(F)cc3)cc2)CC1)O[C@@H]1CN2CCC1CC2 [Compound 7]" category=T
molecule="CC(C)(NC(=O)O[C@@H]1CN2CCC1CC2)c1cc(-c2ccc(F)cc2)ns1 [Compound 11]" category=T
molecule="CC(C)(NC(=O)OC1CN2CCC1CC2)c1ccc(-c2ccc(OCC#N)cc2)cc1 (centres unmarked) [Compound 23]" category=T
molecule="COCCOc1ccc(-c2nc(C(C)(C)NC(=O)OC3CN4CCC3CC4)cs2)cc1 (centres unmarked) [Compound 20]" category=F
molecule="CC(C)(NC(=O)O[C@@H]1CN2CCC1CC2)c1nc(-c2ccc(F)cc2)cs1 [Compound 12]" category=T
molecule="COCCOc1cccc(-c2ccc(C(C)(C)NC(=O)O[C@@H]3CN4CCC3CC4)cc2)c1 [Compound 14]" category=T
molecule="CC(C)(NC(=O)OC1CN2CCC1CC2)c1ccc(-c2ccc(CO)cc2)cc1 (centres unmarked) [Compound 17]" category=F
molecule="COCCCOc1ccc(-c2ccc(C(C)(C)NC(=O)OC3CN4CCC3CC4)cc2)cc1 (centres unmarked) [Compound 16]" category=T
molecule="CC(C)(NC(=O)O[C@@H]1CN2CCC1CC2)c1ccc(-c2ccccc2)cc1 [Compound 5]" category=T
molecule="CC(C)(NC(=O)OC1CN2CCC1CC2)c1ccc(-c2ccc(CCO)cc2)cc1 (centres unmarked) [Compound 18]" category=F
molecule="O=C(NC1(c2ccc(-c3ccccc3)cc2)CC1)OC1CN2CCC1CC2 (centres unmarked) [Compound 6]" category=T
molecule="COc1ccc(-c2ccc(C3(NC(=O)OC4CN5CCC4CC5)CC3)cc2)cc1 (centres unmarked) [Compound 9]" category=T
molecule="COCCOc1ccc(-c2ccc(C(C)(C)NC(=O)OC3CN4CCC3CC4)cc2)cc1 (centres unmarked) [Compound 13]" category=T
molecule="CC(C)(NC(=O)OC1CN2CCC1CC2)c1ccc(-c2ccc(OCCCC#N)cc2)cc1 (centres unmarked) [Compound 22]" category=T

Where do the numbers come from? From patent US20220016092A1.
